Consider the following compounds; for each one, report its mass density.
# experimental.setup: 298.15 K; 102 kPa; Liquid; Vibrating tube method
Numbers after ± are expanded uncertainties.

Prompt: Consider the compound shown here: O=[N+]([O-])c1ccccc1 [nitrobenzene] What is its recorded mass density?
Response: 1198.2 ± 1 kg/m3

Prompt: Please give the measured mass density for this compound: COc1ccccc1 [anisole]
Response: 989.32 ± 1 kg/m3

Prompt: # mass density lookup, item CC(C)(C)c1ccccc1 [(1,1-dimethylethyl)benzene]
Response: 862.28 ± 1 kg/m3

Prompt: Which mass density reading was recorded for the compound CCc1ccccc1 [ethylbenzene] ?
Response: 862.58 ± 1 kg/m3
